system: Thymocyte; test: Toxicity in rat thymocytes assessed as increase in cell death at 1000 uM measured after 4 hrs by flow cytometric analysis relative to control; assay type: cell-based
Provide the recorded Ratio for the entries that follow.

# value of Ratio, Thymocyte, item Oc1cc(O)cc(/C=C/c2ccccc2O)c1 = > 10

# value of Ratio, Thymocyte, item Cc1ccc(/C=C/c2cc(O)cc(O)c2)cc1 = < 5

# value of Ratio, Thymocyte, item COc1cccc(/C=C/c2cc(OC)cc(OC)c2)c1 = < 5

# value of Ratio, Thymocyte, item COc1ccc(/C=C/c2cc(OC)ccc2OC)cc1 = < 5

# value of Ratio, Thymocyte, item COc1ccc(/C=C/c2ccccc2OC)cc1 = 5

# value of Ratio, Thymocyte, item Oc1ccc(/C=C/c2ccccc2O)cc1 = > 10

# value of Ratio, Thymocyte, item CC(=O)Oc1ccc(/C=C/c2cc(O)cc(O)c2)cc1 = > 10

---

assay: Radioprotective activity in rat thymocytes assessed as radio-modification factor pretreated at 1 uM followed by 2 Gy X-ray irradiation measured after 4 hrs by flow cytometric analysis relative to control; assay type: ADME, cell-based; conditions: thymocyte
Provide the recorded Ratio for the entries that follow.

Ratio recorded for this compound, Oc1ccc(/C=C/c2ccc(O)c(O)c2)cc1 , is 2.2

Ratio recorded for this compound, COc1ccc(/C=C/c2cc(OC)cc(OC)c2)cc1 [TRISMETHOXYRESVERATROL] , is 0.82

Ratio recorded for this compound, Oc1ccc(/C=C/c2cc(O)cc(O)c2)cc1 [RESVERATROL] , is 0.93

Ratio recorded for this compound, COc1ccc(/C=C/c2ccc(OC)cc2)cc1 , is 1.1

Ratio recorded for this compound, Cc1ccc(/C=C/c2cc(O)cc(O)c2)cc1 , is 0.94

Ratio recorded for this compound, Oc1ccc(/C=C/c2ccccc2O)cc1 , is 0.4

Ratio recorded for this compound, Oc1ccc(/C=C/c2cc(O)ccc2O)cc1 , is 1.7

Ratio recorded for this compound, COc1ccc(/C=C/c2ccccc2OC)cc1 , is 1.3

Ratio recorded for this compound, CC(=O)Oc1ccc(/C=C/c2cc(O)cc(O)c2)cc1 , is 1.14

Ratio recorded for this compound, Oc1cc(O)cc(/C=C/c2ccccc2O)c1 , is 1.2

Ratio recorded for this compound, COc1ccc(/C=C/c2ccc(OC)c(OC)c2)cc1 , is 0.8

Ratio recorded for this compound, COc1cccc(/C=C/c2cc(OC)cc(OC)c2)c1 , is 1.4

---

experiment: Radioprotective activity in rat thymocytes assessed as radio-modification factor pretreated at 1 uM followed by 2 Gy X-ray irradiation measured after 4 hrs by flow cytometric analysis relative to control; format: ADME, cell-based; conditions: thymocyte
Quantity: Ratio

Ratio recorded for this compound, COc1cc(/C=C/c2ccc(OC(C)=O)cc2)cc(OC)c1 , is 0.99

Ratio recorded for this compound, COc1ccc(/C=C/c2cccc(OC)c2)cc1 , is 1

Ratio recorded for this compound, COc1cc(/C=C/c2ccccc2OC)cc(OC)c1 , is 0.8

Ratio recorded for this compound, Oc1ccc(/C=C/c2ccc(O)cc2)cc1 [TRANS-4,4'-DIHYDROXYSTILBENE] , is 0.6

Ratio recorded for this compound, Oc1ccc(/C=C/c2cccc(O)c2)cc1 [(E)-3,4'-STILBENDIOL] , is 1.4

Ratio recorded for this compound, Oc1cccc(/C=C/c2cc(O)cc(O)c2)c1 , is 0.9

Ratio recorded for this compound, COc1cc(/C=C/c2ccc(NC(C)=O)cc2)cc(OC)c1 , is 1.25

Ratio recorded for this compound, Oc1cc(O)cc(/C=C/c2ccc(Cl)cc2)c1 , is 0.56

Ratio recorded for this compound, COc1cc(/C=C/c2ccc(F)cc2)cc(OC)c1 , is 1.34

Ratio recorded for this compound, Oc1cc(O)cc(/C=C/c2ccc(F)cc2)c1 , is 0.89

Ratio recorded for this compound, COc1ccc(/C=C/c2ccc(OC)c(OC)c2)cc1OC , is 0.4

Ratio recorded for this compound, COc1ccc(/C=C/c2cc(OC)ccc2OC)cc1 , is 0.7

---

system: Thymocyte; assay: Toxicity in rat thymocytes assessed as increase in cell death at 10 uM measured after 4 hrs by flow cytometric analysis relative to control; type: cell-based
Provide the recorded Ratio for the entries that follow.

Ratio recorded for this compound, COc1cc(/C=C/c2ccc(NC(C)=O)cc2)cc(OC)c1 , is < 5

Ratio recorded for this compound, Oc1cc(O)cc(/C=C/c2ccc(F)cc2)c1 , is < 5

Ratio recorded for this compound, COc1ccc(/C=C/c2ccc(OC)cc2)cc1 , is < 5

Ratio recorded for this compound, Oc1cc(O)cc(/C=C/c2ccc(Cl)cc2)c1 , is 5

Ratio recorded for this compound, COc1cc(/C=C/c2ccccc2OC)cc(OC)c1 , is < 5

Ratio recorded for this compound, COc1cccc(/C=C/c2cc(OC)cc(OC)c2)c1 , is < 5

Ratio recorded for this compound, Oc1ccc(/C=C/c2cc(O)ccc2O)cc1 , is > 10

---

test: Radioprotective activity in rat thymocytes assessed as radio-modification factor pretreated at 10 uM followed by 2 Gy X-ray irradiation measured after 4 hrs by flow cytometric analysis relative to control; assay type: ADME, cell-based; conditions: thymocyte
Criterion: Ratio meeting or surpassing 1. Met: true. Not met: false.

[in] Is Ratio at least 1? Consider Oc1cccc(/C=C/c2cc(O)cc(O)c2)c1
[out] false

[in] Is Ratio at least 1? Consider Oc1cc(O)cc(/C=C/c2ccccc2O)c1
[out] true

[in] Is Ratio at least 1? Consider COc1ccc(/C=C/c2ccccc2OC)cc1
[out] true

[in] Is Ratio at least 1? Consider COc1ccc(/C=C/c2cc(OC)ccc2OC)cc1
[out] true

[in] Is Ratio at least 1? Consider COc1cc(/C=C/c2ccc(OC(C)=O)cc2)cc(OC)c1
[out] false

[in] Is Ratio at least 1? Consider Oc1ccc(/C=C/c2ccc(O)cc2)cc1 [TRANS-4,4'-DIHYDROXYSTILBENE]
[out] true

[in] Is Ratio at least 1? Consider Oc1ccc(/C=C/c2ccccc2O)cc1
[out] false

[in] Is Ratio at least 1? Consider COc1cccc(/C=C/c2cc(OC)cc(OC)c2)c1
[out] true

[in] Is Ratio at least 1? Consider Oc1ccc(/C=C/c2cccc(O)c2)cc1 [(E)-3,4'-STILBENDIOL]
[out] true

[in] Is Ratio at least 1? Consider COc1ccc(/C=C/c2cc(OC)cc(OC)c2)cc1
[out] false

---

test system: Thymocyte; assay: Toxicity in rat thymocytes assessed as increase in cell death at 1000 uM measured after 4 hrs by flow cytometric analysis relative to control; format: cell-based
Quantity: Ratio

Ratio recorded for this compound, COc1cc(/C=C/c2ccccc2OC)cc(OC)c1 , is 5

Ratio recorded for this compound, COc1ccc(/C=C/c2cccc(OC)c2)cc1 , is < 5

Ratio recorded for this compound, Oc1cc(O)cc(/C=C/c2ccc(F)cc2)c1 , is > 10

Ratio recorded for this compound, COc1cc(/C=C/c2ccc(OC(C)=O)cc2)cc(OC)c1 , is 5

Ratio recorded for this compound, Oc1ccc(/C=C/c2cc(O)ccc2O)cc1 , is > 10

Ratio recorded for this compound, Oc1ccc(/C=C/c2cccc(O)c2)cc1 [(E)-3,4'-STILBENDIOL] , is < 5

Ratio recorded for this compound, Oc1ccc(/C=C/c2ccc(O)c(O)c2)cc1 , is > 10

---

experiment: Radioprotective activity in rat thymocytes assessed as radio-modification factor pretreated at 10 uM followed by 2 Gy X-ray irradiation measured after 4 hrs by flow cytometric analysis relative to control; assay type: ADME, cell-based; conditions: thymocyte
Quantity: Ratio
Keep the answer to the number alone.

Ratio recorded for this compound, CC(=O)Oc1ccc(/C=C/c2cc(O)cc(O)c2)cc1 , is 1.01

Ratio recorded for this compound, Oc1cc(O)cc(/C=C/c2ccc(F)cc2)c1 , is 0.81

Ratio recorded for this compound, COc1cc(/C=C/c2ccccc2OC)cc(OC)c1 , is 0.6

Ratio recorded for this compound, Oc1ccc(/C=C/c2cc(O)cc(O)c2)cc1 [RESVERATROL] , is 1.06

Ratio recorded for this compound, COc1ccc(/C=C/c2ccc(OC)cc2)cc1 , is 1

Ratio recorded for this compound, Oc1cc(O)cc(/C=C/c2ccc(Cl)cc2)c1 , is 0.47

Ratio recorded for this compound, Cc1ccc(/C=C/c2cc(O)cc(O)c2)cc1 , is 1.06

---

Provide the recorded Ratio for the entries that follow.
assay: Radioprotective activity in rat thymocytes assessed as radio-modification factor pretreated at 100 uM followed by 2 Gy X-ray irradiation measured after 4 hrs by flow cytometric analysis relative to control; format: ADME, cell-based; conditions: thymocyte

Ratio recorded for this molecule, COc1cc(/C=C/c2ccccc2OC)cc(OC)c1 , is 0.3

Ratio recorded for this molecule, Oc1ccc(/C=C/c2cc(O)cc(O)c2)cc1 , is 0.59

Ratio recorded for this molecule, COc1ccc(/C=C/c2ccccc2OC)cc1 , is -0.2
